Where do the numbers come from? From patent US8680290B2.

Exercise: state measured herbicidal action (damage rating 0-10), Digitaria for each of the compounds provided.
# Tested on: Monocotyledonous and dicotyledonous test plants
# protocol.text: Example B1 herbicidal action, application pre-emergence (Table B1b)
# Type: in vivo
# condition.label: Digitaria, 250 g/ha, evaluated after 4 weeks
Hey, just send me the number, nothing else.

(Q) Can you look up the measured herbicidal action (damage rating 0-10), Digitaria of "CC1(C)CC(S(=O)(=O)C(F)(F)c2ccccc2C#N)=NO1" for me?
(A) 10

(Q) Would you mind telling me what herbicidal action (damage rating 0-10), Digitaria value was observed for Cn1nc(C(F)(F)F)c(C(Cl)S(=O)(=O)C2=NOC(C)(C)C2)c1OCC(F)(F)F (stereo not drawn) ?
(A) 10

(Q) For the compound C=C(OC(C)=O)C(F)(c1c(F)cccc1F)S(=O)(=O)C1=NOC(C)(C)C1 (racemic) , what herbicidal action (damage rating 0-10), Digitaria is on record?
(A) 9

(Q) What value of herbicidal action (damage rating 0-10), Digitaria has been recorded for this entry: CC1(C)CC(S(=O)(=O)C(F)(Cl)c2cc(F)ccc2F)=NO1 (stereo not drawn)
(A) 10

(Q) // herbicidal action (damage rating 0-10), Digitaria lookup, key: "Cn1nc(C(F)(F)F)c(C(F)(F)S(=O)(=O)C2=NOC(C)(C)C2)c1OC(F)F"
(A) 10

(Q) Give its herbicidal action (damage rating 0-10), Digitaria value. Item: CC1(C)CC(S(=O)(=O)C(CC=C(F)F)c2c(F)cccc2F)=NO1 (stereo not drawn)
(A) 7

(Q) Could you share which herbicidal action (damage rating 0-10), Digitaria value was measured for Cn1nc(C(F)(F)F)c(C(F)(Cl)S(=O)(=O)C2=NOC(C)(C)C2)c1OCC(F)(F)F (stereo not drawn) ?
(A) 10

(Q) State the recorded herbicidal action (damage rating 0-10), Digitaria for this entry: CC1(C)CC(S(=O)(=O)C(Br)c2c(F)cccc2C(F)(F)F)=NO1 (racemic)
(A) 10

(Q) # query: herbicidal action (damage rating 0-10), Digitaria of entry "CC1(C)CC(S(=O)(=O)C(F)(F)c2ccccc2)=NO1"
(A) 10

(Q) Which value of herbicidal action (damage rating 0-10), Digitaria has been reported for Cc1onc(C2CC2)c1C(Cl)S(=O)(=O)C1=NOC(C)(C)C1 (stereo not drawn) in the records?
(A) 9

(Q) Which herbicidal action (damage rating 0-10), Digitaria value is on record for CC1(C)CC(S(=O)(=O)C(F)(Cl)c2ccc(F)cc2F)=NO1 (stereo not drawn) ?
(A) 10

(Q) Could you tell me which herbicidal action (damage rating 0-10), Digitaria is on file for CC1(C)CC(S(=O)(=O)C(F)(Cl)c2cccnc2Cl)=NO1 (stereo not drawn) ?
(A) 10

(Q) Data request, read-out herbicidal action (damage rating 0-10), Digitaria, for "CC1(C)CC(S(=O)(=O)C(F)(F)c2ccccc2F)=NO1"
(A) 10

(Q) herbicidal action (damage rating 0-10), Digitaria lookup needed for Cn1nc(C(F)(F)F)c(C(C(=O)C(F)F)S(=O)(=O)C2=NOC(C)(C)C2)c1OCC(F)(F)F (stereo not drawn) , thanks.
(A) 8

(Q) Give the measured herbicidal action (damage rating 0-10), Digitaria of CC1(C)CC(S(=O)(=O)C(Cl)c2ccccc2OC(F)(F)F)=NO1 (stereo not drawn) .
(A) 10

(Q) Quick one: herbicidal action (damage rating 0-10), Digitaria for "CC(=O)OC(C)=C(c1c(C(F)(F)F)nn(C)c1OCC(F)(F)F)S(=O)(=O)C1=NOC(C)(C)C1" ?
(A) 4

(Q) Given the entry "Cn1nc(C(F)(F)F)c(C(F)(F)S(=O)(=O)C2=NOC(C)(C)C2)c1OCC(F)F" , report its measured herbicidal action (damage rating 0-10), Digitaria.
(A) 10

(Q) So what's the measured herbicidal action (damage rating 0-10), Digitaria for this one? COc1cc(C(Cl)S(=O)(=O)C2=NOC(C)(C)C2)on1 (stereo not drawn)
(A) 8

====

Please go through the items and note down their herbicidal action (damage rating 0-10), Amaranthus.
# System: Monocotyledonous and dicotyledonous test plants
# protocol.text: Example B1 herbicidal action, application pre-emergence (Table B1b)
# Assay type: in vivo
# condition.label: Amaranthus, 250 g/ha, evaluated after 4 weeks
Could you keep your reply to the number by itself?

(Q) Which herbicidal action (damage rating 0-10), Amaranthus is listed for "CC1(C)CC(S(=O)(=O)C(F)(F)c2ccccc2)=NO1" ?
(A) 10

(Q) Please look up its herbicidal action (damage rating 0-10), Amaranthus: C=C(OC(C)=O)C(F)(c1c(F)cccc1F)S(=O)(=O)C1=NOC(C)(C)C1 (racemic)
(A) 10

(Q) What value of measured herbicidal action (damage rating 0-10), Amaranthus is listed for "Cc1ccc(F)c(C(F)(F)S(=O)(=O)C2=NOC(C)(C)C2)c1F" ?
(A) 10

(Q) Fill in: herbicidal action (damage rating 0-10), Amaranthus of Cn1nc(C(F)(F)F)c(C(C(=O)C(F)F)S(=O)(=O)C2=NOC(C)(C)C2)c1OCC(F)(F)F (centres unmarked) is ___
(A) 7

(Q) Name the reported herbicidal action (damage rating 0-10), Amaranthus value associated with the compound CC1(C)CC([S+]([O-])C(Cl)c2c(F)cccc2Cl)=NO1 (single isomer, unassigned) [1.34]
(A) 9

(Q) Recorded herbicidal action (damage rating 0-10), Amaranthus of C=CC1CC1(c1c(F)cccc1F)S(=O)(=O)C1=NOC(C)(C)C1 (centres unmarked) , please.
(A) 3

(Q) Reported herbicidal action (damage rating 0-10), Amaranthus for "Cc1nsc(C#N)c1C(F)(F)S(=O)(=O)C1=NOC(C)(C)C1" : what is it?
(A) 7

(Q) What value of herbicidal action (damage rating 0-10), Amaranthus has been reported for the following compound? "CC1(C)CC(S(=O)(=O)C(F)(F)c2ccccc2C(F)(F)F)=NO1"
(A) 10

====

# System: Monocotyledonous and dicotyledonous test plants
# protocol.text: Example B1 herbicidal action, application post-emergence (Table B1a)
# Assay type: in vivo
# condition.label: Sida, 250 g/ha, evaluated after 3 weeks, scale 0-10
What herbicidal damage rating, Sida was measured for each of the following?
Simply state the number, no unit and no words.

(Q) Query the reported herbicidal damage rating, Sida for Monocotyledonous and dicotyledonous test plants; item: Cn1nc(C(F)(F)F)c(C(Cl)S(=O)(=O)C2=NOC(C)(C)C2)c1OC(F)F (stereo not drawn)
(A) 7

(Q) Param readout= herbicidal damage rating, Sida; system= Monocotyledonous and dicotyledonous test plants; entry= "CC1(C)CC(S(=O)(=O)C(F)(F)c2cccc(F)c2F)=NO1" ; returns value.
(A) 0

(Q) herbicidal damage rating, Sida of CC1(C)CC(S(=O)(=O)C(Br)c2ccccc2C#N)=NO1 (racemic) on Monocotyledonous and dicotyledonous test plants?
(A) 3

(Q) Please tell me: herbicidal damage rating, Sida of CC1(C)CC(S(=O)(=O)C(C)(F)c2c(F)cccc2F)=NO1 (stereo not drawn) , system Monocotyledonous and dicotyledonous test plants?
(A) 3

(Q) Test system Monocotyledonous and dicotyledonous test plants; read-out herbicidal damage rating, Sida; what value for "Cn1nc(C(F)(F)F)c(C(F)(F)S(=O)(=O)C2=NOC(C)(C)C2)c1OC(F)F" ?
(A) 7

(Q) Provide the documented herbicidal damage rating, Sida with Monocotyledonous and dicotyledonous test plants as the system for "Cn1nc(C(F)(F)F)c(C(Cl)(Cl)S(=O)(=O)C2=NOC(C)(C)C2)c1OC(F)F"
(A) 4

(Q) Could you share what herbicidal damage rating, Sida was measured for CC1(C)CC(S(=O)(=O)C(F)(Cl)c2ccccc2[S+]([O-])C(F)(F)F)=NO1 (stereo not drawn) , tested on Monocotyledonous and dicotyledonous test plants?
(A) 0

(Q) Monocotyledonous and dicotyledonous test plants / herbicidal damage rating, Sida / CC1(C)CC(S(=O)(=O)C(Br)c2c(F)cccc2C(F)(F)F)=NO1 (racemic) : value?
(A) 5

(Q) herbicidal damage rating, Sida of CC1(C)CC(S(=O)(=O)C(F)(F)c2ccccc2[S+]([O-])C(F)(F)F)=NO1 (racemic) on Monocotyledonous and dicotyledonous test plants?
(A) 5

(Q) For Monocotyledonous and dicotyledonous test plants, provide herbicidal damage rating, Sida of CCOC(=O)c1ccc(C(F)(Cl)S(=O)(=O)C2=NOC(C)(C)C2)c(F)c1 (stereo not drawn) please.
(A) 0

(Q) herbicidal damage rating, Sida of "CC1(C)CC(S(=O)(=O)C(F)(F)c2ccccc2-c2ccccc2)=NO1" on Monocotyledonous and dicotyledonous test plants?
(A) 6

(Q) Look up herbicidal damage rating, Sida with Monocotyledonous and dicotyledonous test plants for this compound: CC1(C)CC(S(=O)(=O)C(F)(I)c2c(F)cccc2F)=NO1 (racemic)
(A) 3

(Q) Requested read-out herbicidal damage rating, Sida, target or system Monocotyledonous and dicotyledonous test plants, entry "CC1(C)CC(S(=O)(=O)C(F)(F)c2ccccc2SC(F)(F)F)=NO1"
(A) 5

(Q) Entry Cc1ccc(F)c(C(F)(Cl)S(=O)(=O)C2=NOC(C)(C)C2)c1F (stereo not drawn) , system Monocotyledonous and dicotyledonous test plants: what herbicidal damage rating, Sida was measured?
(A) 2

(Q) Param readout= herbicidal damage rating, Sida; system= Monocotyledonous and dicotyledonous test plants; entry= CC1(C)CC(S(=O)(=O)C(Cl)c2cccnc2Cl)=NO1 (stereo not drawn) ; returns value.
(A) 3

(Q) API: value(readout=herbicidal damage rating, Sida, system=Monocotyledonous and dicotyledonous test plants) for record CC1(C)CC(S(=O)(=O)C(F)(Cl)c2c(F)cccc2F)=NO1 (stereo not drawn)
(A) 5

(Q) Request: herbicidal damage rating, Sida, test system Monocotyledonous and dicotyledonous test plants, entry Cn1nc(C(F)(F)F)c(C(Cl)S(=O)(=O)C2=NOC(C)(C)C2)c1OCC(F)(F)F (stereo not drawn)
(A) 6

(Q) Find herbicidal damage rating, Sida (Monocotyledonous and dicotyledonous test plants) for the entry "Cc1ccccc1C(F)(F)S(=O)(=O)C1=NOC(C)(C)C1"
(A) 7
